- System: SK-MEL-2 melanoma
- Measurement Description: NCI-60 one-dose screen, 48 h
- Condition Details: 10 µM
The panel holds about 83,000 compounds, 20% with a hit somewhere; the sample as a whole holds those more often. The source made the active and inactive calls. How the source made its calls: active means growth percent below 10; inactive means the rest.
// one of active, inactive, no free text

Take a look at these entries with their results.
CC(=O)c1ccc(NC(=O)NCn2c(=O)[nH]c3ccccc3c2=O)cc1	inactive
CN1CCN(Cc2ccc(C(=O)Nc3cccc(Nc4ccc5cc(O)ccc5n4)c3)cc2C(F)(F)F)CC1	active
O=C(CNc1nc(-c2ccccc2)cs1)Nc1ccc(Cl)cc1[N+](=O)[O-]	active
O=C1Nc2ccc(Cl)cc2/C1=C/c1cccc(OCc2ccccn2)c1	active
CCCn1c(O)c(N=Nc2nc(-c3cc4ccccc4oc3=O)cs2)c2cc(Br)ccc21	inactive

Incoming: Test call for this compound, please: `C=CCn1c(SCC(=O)Nc2ccc(C(=O)/C=C/c3ccccc3)cc2)nnc1-c1c[nH]c2ccccc12`
Outgoing: inactive

Incoming: Look up the recorded call for `Cc1nc2c(cnn2-c2ccccc2)c(=O)n1-c1ccc(NC(=O)c2ccc(F)cc2)cc1` in this test.
Outgoing: inactive
